These data points were gathered from PubChem BioAssay (NCI).

Measured log10 TGI, listed per entry for reference.
- Test system: NCI-H226 lung
- assay.summary: NCI tumour cell line growth inhibition, 48 h
# values: log10(TGI), units µM

Look over these answered cases.
CC1=C(C)Cc2c(O)ccc(O)c2C1; 1.62
OCCNCNc1nc(NCNCCO)nc(N(CNCCO)CNCCO)n1; 1.67
COc1cc(C(O)(CC#N)c2cc3c(cc2Br)OCO3)cc(OC)c1OC (centres undefined); 1.92
C=C1CC2(OC1=O)C(=O)Nc1ccccc12 (centres undefined); 0.72
O=C1c2ccccc2-c2c1c1ccccc1c(=O)n2CCCn1ccnc1; 0.48

Now for a further compound.
Inquiry: What value of log10 TGI has been reported for the following compound? O=C1Oc2cc(O)cc(/C=C/c3ccc(O)cc3)c2[C@@]12c1c(O)cc(O)cc1OC2c1cccc(O)c1 (some centres undefined)
Reply text: 1.97

* * *

- Test system: UACC-62 melanoma
- assay.summary: NCI tumour cell line growth inhibition, 48 h
Tick 1 (yes) if TGI is 8 µM or greater. Tick 0 (no) if TGI is less than 8 µM.

OCCNCNc1nc(NCNCCO)nc(N(CNCCO)CNCCO)n1; 1 (yes)

Inquiry: Is reported TGI greater than or equal to 8 µM here: CC(=O)Nc1ccc(C2SCc3nc4ccccc4n32)cc1 (stereo not given)
Reply text: 1 (yes)

Inquiry: Is reported TGI greater than or equal to 8 µM here: `COc1ccc(-c2ccc(-c3ccc(C(=N)N)o3)o2)cc1`
Reply text: 0 (no)

* * *

- System: SF-295 CNS
- assay.summary: NCI tumour cell line growth inhibition, 48 h
property.label: TGI (µM)
Provide only the numeric value, understood in µM.

CC(C)(C)OC(=O)N1C(c2cccnc2)=CC[C@H]2C3CC=C(c4cccnc4)[C@@]3(C)CC[C@@H]21 (stereo not given in full); 11.1
CC(=O)Nc1ccc(/C=C/C(=O)N2CC(CCl)c3c2cc(N)c2ccccc32)cc1 (stereo not given); 38.5
CC(C)NC(=O)CN1CCN(c2c(O)c3c(c(O)c2Cl)C(=O)C=CC3=O)CC1; 19.7
COc1ccc(-c2ccc(-c3ccc(C(=N)N)o3)o2)cc1; 3.51

Now for a further compound.
Inquiry: What value of TGI has been reported for the following compound? `N/C(=N\N=C\c1ccc2c(c1)OCCO2)NO`
Reply text: 57.1

* * *

Measured log10 of TGI, listed per entry for reference.
- Test system: M14 melanoma
- assay.summary: NCI tumour cell line growth inhibition, 48 h
# values: log10(TGI), units µM

COc1cc(C2CC(c3ccc(Nc4ccnc5cc(Cl)ccc45)cc3)=NN2c2ccc(Cl)cc2)cc(OC)c1OC (stereo unspecified); 0.98
CC(C)NC(=O)CN1CCN(c2c(O)c3c(c(O)c2Cl)C(=O)C=CC3=O)CC1; 0.47
COc1cc(C(O)(CC#N)c2cc3c(cc2Br)OCO3)cc(OC)c1OC (stereo unspecified); 1.70

Inquiry: What value of log10 of TGI has been reported for the following compound? `CC(=O)OCc1cc2ccccc2nc1C(Br)(Br)Br`
Reply text: 1.74

Inquiry: What value of log10 of TGI has been reported for the following compound? `Cc1ccc(O)c(NC(=O)c2ccc(CNc3ccnc(C(F)(F)F)c3)cc2)c1`
Reply text: 1.38

* * *

- Test system: U251 CNS
- assay.summary: NCI tumour cell line growth inhibition, 48 h
property.label: TGI

Look over these answered cases.
CCN1CCC(O)(c2ccc(Cl)cc2)C(C(=O)c2ccc(Cl)cc2)C1 (stereo not given); > 100 µM
COc1ccc(SCc2cc(OCc3ccccc3)c(OCc3ccccc3)c(OCc3ccccc3)c2)cc1; 3.22 µM
COc1cc(/C=c2\sc3n(c2=O)C(c2ccc(Cl)cc2)C2=C(CCCC2C)N=3)cc(OC)c1OC (stereo not given); > 100 µM
Cc1ccc(S(=O)(=O)NNCNC(=O)c2ccccc2)cc1; > 100 µM
O=C1C(Cl)=C(Nc2ccc(S(=O)(=O)Nc3ccccn3)cc2)C(=O)c2ccccc21; 19.3 µM
CCCCn1c2c(n(CCCC)c1=S)-c1c(n(CCCC)c(=S)n1CCCC)SSc1c(n(CCCC)c(=S)n1CCCC)-c1c(n(CCCC)c(=S)n1CCCC)SSc1c(n(CCCC)c(=S)n1CCCC)-c1c(n(CCCC)c(=S)n1CCCC)SS2; > 50 µM

Now for a further molecule.
Inquiry: What value of TGI has been reported for the following molecule? `O=C1C(=Cc2c(O)cc(O)cc2O)C(=O)c2ccccc21`
Reply text: > 57.2 µM
